TGI listing for selected compounds.
Test system: COLO 205 colon
test: NCI tumour cell line growth inhibition, 48 h
Just the number in µM, nothing appended.

compound: Nc1c(C(=O)Nc2ccccc2)sc2nc3c(cc12)C(O)CCC3 (centres undefined)
observedValue: 2.63
//
compound: Cc1cc(=O)[nH]c(NN2C(Cl)C(=O)C2c2ccc(O)cc2)n1 (centres undefined)
observedValue: 40.7
//
compound: O=C(Cc1nc2cccnc2nc1/C=C(\O)c1ccccc1)c1ccccc1
observedValue: 25.1
//
compound: C=C[C@H]1CN2CCc3c([nH]c4cc(O)ccc34)[C@@H]2C[C@@H]1C[C@H]1c2[nH]c3ccccc3c2CCN1C
observedValue: 3.31

As a next step, examine the compound that follows.
// returns reported TGI for input CC(=O)O[C@H]1C(=O)[C@@]2(C)[C@H]([C@H](OC(=O)c3ccccc3)[C@]3(O)C[C@H](OC(=O)[C@H](O)[C@@H](NC(=O)c4ccoc4)c4ccccc4)C(C)=C1C3(C)C)[C@]1(OC(C)=O)CO[C@@H]1C[C@@H]2O
16.9

---

Test system: KM12 colon
test: NCI tumour cell line growth inhibition, 48 h
Recorded TGI values for a group of compounds are listed next.
Give the quantity in µM, number only.

Worked set:
compound: Cn1ccnc1C(=O)/C=C/c1ccc(C(=O)Nc2ccccc2F)cc1
TGI [µM]: 3.82
//
compound: C[C@]12CC[C@H](O)C[C@@H]1CC[C@@H]1[C@@H]2CC[C@]2(C)[C@@H](c3cc(C(F)(F)F)n[nH]3)CC[C@@H]12
TGI [µM]: 25.6

Here's the next entry for you.
Bench note: what TGI did O=P(Nc1ccccc1)(Oc1ccccc1)N1CCN(c2ccccc2)CC1 (stereo not given) show?
33.5

---

Tested on: HOP-62 NSCLC
test: NCI tumour cell line growth inhibition, 48 h
Reported TGI by item:
Number in µM, nothing else.

Use these answered entries as a reference point.
compound: Cc1cc(=O)[nH]c(NN2C(Cl)C(=O)C2c2ccc(O)cc2)n1 (stereo unspecified)
observedProperty: TGI
valueUnits: µM
observedValue: 19
//
compound: O=C(c1c(Cl)cc(Cl)cc1Cl)N(Cc1cccnc1)C(=S)N(Cc1cccnc1)C(=O)c1c(Cl)cc(Cl)cc1Cl
observedProperty: TGI
valueUnits: µM
observedValue: 20.3

Query compound follows.
Request: TGI, test system HOP-62 NSCLC, entry COc1ccc2[nH]c(C(=O)N3CCN(C(=O)OCc4ccc5c(Br)cc(Br)c(O)c5n4)CC3)cc2c1
3.66

---

Tested on: OVCAR-8 ovarian
test: NCI tumour cell line growth inhibition, 48 h
# TGI per entry
Respond with the bare value in µM.

compound: CCCCCC/C=C\CCCCCCCCCc1cc(O)cc(OC)c1O
TGI [µM]: 6.5

compound: NCCOc1ncccc1/C=C1\C2C=CC=CC2C2C=CC(F)=CC12 (stereo not given)
TGI [µM]: 3.48

compound: Cc1ccc2nc3ccccc3c(NCc3ccccc3)c2c1
TGI [µM]: 11.1

Tell me the measured TGI of Cn1cc(-c2ccc(-c3cn(C)c4ncccc34)[nH]2)c2cccnc21 , please.
6.45

---

Test system: SNB-19 CNS
test: NCI tumour cell line growth inhibition, 48 h
observedProperty: TGI

I have this compound here, N#Cc1c(C#N)c(SSc2c(C#N)c(C#N)c(N)n2-c2ccc(F)cc2)n(-c2ccc(F)cc2)c1N , and I need its recorded TGI.
42.6 µM

Please give the measured TGI for this compound: CCCOc1cc2c(cc1O)CC[C@@H]1[C@@H]2CC[C@]2(C)[C@@H](O)CC[C@@H]12
> 100 µM
